biological target: MMP-1 (Homo sapiens); construct: made in house; host or cells: transfected HT-1080 cells (provided by Dr. Harold Welgus, Washington University); experiment: In vitro metalloprotease inhibition, fluorogenic MCA peptide substrate; assay type: biochemical; details: Inhibition Table B
Sequence (P03956 100-469): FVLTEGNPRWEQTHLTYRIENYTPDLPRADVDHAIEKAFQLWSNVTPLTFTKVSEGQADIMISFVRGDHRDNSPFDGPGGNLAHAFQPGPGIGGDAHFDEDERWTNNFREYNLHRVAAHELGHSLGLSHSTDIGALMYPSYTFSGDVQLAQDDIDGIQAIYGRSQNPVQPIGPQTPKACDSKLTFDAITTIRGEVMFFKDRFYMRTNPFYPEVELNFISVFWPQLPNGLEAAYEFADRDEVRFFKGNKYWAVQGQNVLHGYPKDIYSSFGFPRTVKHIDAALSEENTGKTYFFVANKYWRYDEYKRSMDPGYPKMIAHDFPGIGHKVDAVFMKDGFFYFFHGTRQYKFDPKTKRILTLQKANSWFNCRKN
Counter-ions that a name gives are not always drawn.
endpoint.label: IC50

Request body: readout IC50, system MMP-1 (Homo sapiens), query `COc1ccc(S(=O)(=O)N2CCC(Oc3ccccc3)CC2)c(C(=O)NO)c1OC` . Return the value.
> 10 µM

Request body: readout IC50, system MMP-1 (Homo sapiens), query `CCCCCCCOC1CCN(S(=O)(=O)c2ccc3c(c2C(=O)NO)OCO3)CC1` . Return the value.
> 10 µM

Request body: readout IC50, system MMP-1 (Homo sapiens), query `CCCCOc1ccc(OC2CCN(S(=O)(=O)c3ccc(OC)c(OC)c3C(=O)NO)CC2)cc1` . Return the value.
> 10 µM

Request body: readout IC50, system MMP-1 (Homo sapiens), query `CCCCOC1CCN(S(=O)(=O)c2ccc3c(c2C(=O)NO)OCO3)CC1` . Return the value.
> 10 µM

Request body: readout IC50, system MMP-1 (Homo sapiens), query `COc1ccc(S(=O)(=O)N2CCN(c3ccc(C(F)(F)F)cc3)CC2)c(C(=O)NO)c1OC` . Return the value.
> 10 µM

Request body: readout IC50, system MMP-1 (Homo sapiens), query `COc1ccc(S(=O)(=O)N2CCC(Oc3ccc(OC(F)(F)F)cc3)CC2)c(C(=O)NO)c1OC` . Return the value.
> 10 µM

Request body: readout IC50, system MMP-1 (Homo sapiens), query `O=C(NO)c1c(S(=O)(=O)N2CCC(Oc3ccc4c(c3)OCO4)CC2)ccc2c1OCO2` . Return the value.
> 10 µM

Request body: readout IC50, system MMP-1 (Homo sapiens), query COc1ccc(N2CCN(S(=O)(=O)c3ccc(OC)c(OC)c3C(=O)NO)CC2)cc1 [Example 41, monohydrochloride] . Return the value.
> 10 µM

Request body: readout IC50, system MMP-1 (Homo sapiens), query `O=C(NO)c1ccccc1S(=O)(=O)N1CCN(C(=O)c2ccccc2)CC1` . Return the value.
> 10 µM

Request body: readout IC50, system MMP-1 (Homo sapiens), query `COc1ccc(S(=O)(=O)N2CCC(Oc3ccc(-c4ccccc4)cc3)CC2)c(C(=O)NO)c1OC` . Return the value.
> 10 µM

Request body: readout IC50, system MMP-1 (Homo sapiens), query `O=C(NO)c1c(OC2CCOCC2)cccc1S(=O)(=O)N1CCC(Oc2ccc(C(F)(F)F)cc2)CC1` . Return the value.
> 10 µM

Request body: readout IC50, system MMP-1 (Homo sapiens), query `COc1ccccc1OC1CCN(S(=O)(=O)c2ccc(OC)c(OC)c2C(=O)NO)CC1` . Return the value.
> 10 µM

Request body: readout IC50, system MMP-1 (Homo sapiens), query `COc1ccc(S(=O)(=O)N2CCC(Oc3ccc4c(c3)OCO4)CC2)c(C(=O)NO)c1OC` . Return the value.
> 10 µM

Request body: readout IC50, system MMP-1 (Homo sapiens), query `O=C(NO)c1ccccc1S(=O)(=O)N1CCC(n2c(=O)[nH]c3ccccc32)CC1` . Return the value.
> 10 µM

Request body: readout IC50, system MMP-1 (Homo sapiens), query `COc1ccc(OC2CCN(S(=O)(=O)c3ccc(OC)c(OC)c3C(=O)NO)CC2)cc1` . Return the value.
> 10 µM

Request body: readout IC50, system MMP-1 (Homo sapiens), query `COc1ccc(OC)c(S(=O)(=O)N2CCC(Oc3ccc(C(F)(F)F)cc3)CC2)c1C(=O)NO` . Return the value.
> 10 µM

Request body: readout IC50, system MMP-1 (Homo sapiens), query `COc1ccc(S(=O)(=O)N2CCC(Oc3ccc(-c4cccc(C(F)(F)F)c4)cc3)CC2)c(C(=O)NO)c1OC` . Return the value.
> 10 µM

Request body: readout IC50, system MMP-1 (Homo sapiens), query `COC1CCN(S(=O)(=O)c2ccc3c(c2C(=O)NO)OCCO3)CC1` . Return the value.
> 10 µM

Request body: readout IC50, system MMP-1 (Homo sapiens), query `COc1cccc(OC2CCN(S(=O)(=O)c3ccc(OC)c(OC)c3C(=O)NO)CC2)c1` . Return the value.
> 10 µM

Request body: readout IC50, system MMP-1 (Homo sapiens), query `O=C(NO)c1c(S(=O)(=O)N2CCC(Oc3ccc(C(F)(F)F)cc3)CC2)ccc2c1OCO2` . Return the value.
> 10 µM

Request body: readout IC50, system MMP-1 (Homo sapiens), query `COc1ccc(S(=O)(=O)N2CCC(Sc3ccccc3)CC2)c(C(=O)NO)c1OC` . Return the value.
> 10 µM

Request body: readout IC50, system MMP-1 (Homo sapiens), query COc1ccc(S(=O)(=O)N2CCN(Cc3ccc(OC(F)(F)F)cc3)CC2)c(C(=O)NO)c1OC [Example 53, monohydrochloride] . Return the value.
> 10 µM

Request body: readout IC50, system MMP-1 (Homo sapiens), query `O=C(NO)c1c(Cl)sc(Cl)c1S(=O)(=O)N1CCC(Oc2ccc(C(F)(F)F)cc2)CC1` . Return the value.
> 10 µM

Request body: readout IC50, system MMP-1 (Homo sapiens), query `COc1ccc(S(=O)(=O)N2CCC(Oc3ccc(Cl)cc3)CC2)c(C(=O)NO)c1OC` . Return the value.
> 10 µM

Request body: readout IC50, system MMP-1 (Homo sapiens), query `O=C(NO)c1c(S(=O)(=O)N2CCC(Oc3ccc(C(F)(F)F)cc3)CC2)ccc2c1OCCO2` . Return the value.
> 10 µM

Request body: readout IC50, system MMP-1 (Homo sapiens), query CCCCOc1ccc(N2CCN(S(=O)(=O)c3ccc(OC)c(OC)c3C(=O)NO)CC2)cc1C [Example 56, monohydrochloride] . Return the value.
> 10 µM

###

molecular target: MMP-13 (Homo sapiens); construct: made in house; host or cells: insect cells, baculovirus expression; assay: In vitro metalloprotease inhibition, fluorogenic MCA peptide substrate; type: biochemical; conditions: Inhibition Table B
pIC50: −log10 of the molar value.
Lab note: anything with pIC50 at or over 8 counts as y; the rest go in n.

For this compound, is measured pIC50 8 or higher? `COc1ccccc1OC1CCN(S(=O)(=O)c2ccc(OC)c(OC)c2C(=O)NO)CC1`
n

For this compound, is measured pIC50 8 or higher? `O=C(NO)c1c(OC2CCOCC2)cccc1S(=O)(=O)N1CCC(Oc2ccc(C(F)(F)F)cc2)CC1`
y

For this compound, is measured pIC50 8 or higher? `COc1ccc(S(=O)(=O)N2CCC(Oc3ccc(Cl)cc3)CC2)c(C(=O)NO)c1OC`
y

For this compound, is measured pIC50 8 or higher? `COc1ccc(S(=O)(=O)N2CCC(Oc3ccc(OC(F)(F)F)cc3)CC2)c(C(=O)NO)c1OC`
y

###

Give IC50 for every item shown.
Counter-ions that a name gives are not always drawn.
# value in nM; strip the unit string

Request body: readout IC50, system MMP-8 (Homo sapiens), query COc1ccc(S(=O)(=O)N2CCC(Oc3ccc(-c4cccc(C(F)(F)F)c4)cc3)CC2)c(C(=O)NO)c1OC [Example 27] . Return the value.
210

Request body: readout IC50, system MMP-8 (Homo sapiens), query COc1ccc(S(=O)(=O)N2CCC(Oc3ccc(-c4ccccc4C(F)(F)F)cc3)CC2)c(C(=O)NO)c1OC [Example 38] . Return the value.
1700

Request body: readout IC50, system MMP-8 (Homo sapiens), query COc1ccccc1-c1ccc(OC2CCN(S(=O)(=O)c3ccc(OC)c(OC)c3C(=O)NO)CC2)cc1 [Example 22] . Return the value.
800

Request body: readout IC50, system MMP-8 (Homo sapiens), query COc1ccc(S(=O)(=O)N2CCC(Sc3ccccc3)CC2)c(C(=O)NO)c1OC [Example 24] . Return the value.
10.7

Request body: readout IC50, system MMP-8 (Homo sapiens), query COc1ccc(S(=O)(=O)N2CCN(c3ccc(C(F)(F)F)cc3)CC2)c(C(=O)NO)c1OC [Example 26] . Return the value.
37.2

Request body: readout IC50, system MMP-8 (Homo sapiens), query COc1ccc(N2CCN(S(=O)(=O)c3ccc(OC)c(OC)c3C(=O)NO)CC2)cc1 [Example 41, monohydrochloride] . Return the value.
120

###

target: MMP-13 (Homo sapiens, UniProt P45452); construct: made in house; host or cells: insect cells, baculovirus expression; experiment: In vitro metalloprotease inhibition, fluorogenic MCA peptide substrate; type: biochemical; conditions: Inhibition Table A
Please assign a class to every record based on measured IC50, with ranges bin A (below 0.01 µM), bin B (0.01 µM to below 0.5 µM), bin C (0.5 µM or more)

Given O=C(NO)c1ccccc1CS(=O)(=O)c1ccc(Oc2ccccc2)cc1 [Example 1] , name the class its IC50 places it in.
bin B

Given CC(O)(C(=O)NO)c1ccccc1S(=O)(=O)N1CCC(c2ccccc2)CC1 (stereo not drawn) [Example 10] , name the class its IC50 places it in.
bin C

Given O=C(NO)c1ccccc1S(=O)(=O)N1CCC(Oc2ccncc2)CC1 [Example 21] , name the class its IC50 places it in.
bin B

Given O=C(NO)c1ccccc1S(=O)(=O)N1CCC(Oc2ccc(C(F)(F)F)cc2)CC1 [Example 13] , name the class its IC50 places it in.
bin B

Given O=C(Cc1ccccc1S(=O)(=O)c1ccc(Oc2ccccc2)cc1)NO [Example 2] , name the class its IC50 places it in.
bin A

Given COc1ccc(S(=O)(=O)Cc2ccccc2C(=O)NO)cc1 [Example 6] , name the class its IC50 places it in.
bin C

Given COc1ccc(S(=O)(=O)N2CCC(Oc3ccc(C(F)(F)F)cc3)CC2)c(C(=O)NO)c1OC [Example 16] , name the class its IC50 places it in.
bin A

Given O=C(NO)c1c(Cl)cccc1S(=O)(=O)N1CCC(Oc2ccc(C(F)(F)F)cc2)CC1 [Example 20] , name the class its IC50 places it in.
bin B

Given O=C(NO)c1ccccc1S(=O)(=O)N1CCC(c2ccccc2)CC1 [Example 9] , name the class its IC50 places it in.
bin C
